Cited source for all entries: patent US11541056B2

Provide the reported BTK deg Amax % of each item.
target: BTK-GFP (Homo sapiens, UniProt Q06187+Q96SW2); construct: the BTK open reading frame (ORF) was first shuttled from a pcDNA-DEST40-BTK vector (Invitrogen library ID INV_20090504v1); expressed in transfected cells; host or cells: HEK293A cells (Invitrogen R70507), lentiviral transduction with pLenti6-BTK-GFP-Ires-RFP, blasticidin-selected; experiment: BTK-GFP protein abundance flow cytometry assay in HEK293A cells; type: cell-based; conditions: 24 h, % protein remaining at concentration of maximum degradation
Sequence (Q06187 whole entry): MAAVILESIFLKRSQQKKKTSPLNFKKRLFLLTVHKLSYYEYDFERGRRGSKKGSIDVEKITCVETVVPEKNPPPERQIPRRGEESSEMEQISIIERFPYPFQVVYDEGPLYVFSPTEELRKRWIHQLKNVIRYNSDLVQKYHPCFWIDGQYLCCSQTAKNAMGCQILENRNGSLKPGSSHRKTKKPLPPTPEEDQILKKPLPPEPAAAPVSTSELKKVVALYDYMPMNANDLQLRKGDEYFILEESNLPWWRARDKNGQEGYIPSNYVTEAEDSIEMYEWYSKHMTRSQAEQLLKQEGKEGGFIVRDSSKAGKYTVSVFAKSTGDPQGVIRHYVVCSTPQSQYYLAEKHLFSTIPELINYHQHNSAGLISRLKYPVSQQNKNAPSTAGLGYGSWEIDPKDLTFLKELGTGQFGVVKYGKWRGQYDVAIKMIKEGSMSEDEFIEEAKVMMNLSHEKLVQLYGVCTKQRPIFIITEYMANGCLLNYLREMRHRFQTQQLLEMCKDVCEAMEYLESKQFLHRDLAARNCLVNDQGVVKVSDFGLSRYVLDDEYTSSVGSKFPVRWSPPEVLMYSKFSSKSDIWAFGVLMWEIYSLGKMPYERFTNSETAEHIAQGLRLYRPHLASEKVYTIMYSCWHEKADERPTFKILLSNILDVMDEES
Sequence (Q96SW2 whole entry): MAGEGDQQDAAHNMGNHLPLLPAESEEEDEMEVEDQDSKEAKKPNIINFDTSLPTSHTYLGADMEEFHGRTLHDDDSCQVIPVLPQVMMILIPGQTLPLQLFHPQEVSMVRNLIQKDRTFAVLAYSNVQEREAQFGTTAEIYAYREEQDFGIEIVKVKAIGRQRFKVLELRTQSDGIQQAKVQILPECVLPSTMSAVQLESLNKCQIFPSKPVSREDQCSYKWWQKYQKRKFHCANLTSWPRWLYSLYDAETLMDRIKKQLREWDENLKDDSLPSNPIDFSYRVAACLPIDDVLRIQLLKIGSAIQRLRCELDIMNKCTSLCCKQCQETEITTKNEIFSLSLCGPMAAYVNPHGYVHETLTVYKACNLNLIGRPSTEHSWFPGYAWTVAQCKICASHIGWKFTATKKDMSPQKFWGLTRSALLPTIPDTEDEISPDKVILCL
Sequence (Q16531 whole entry partner): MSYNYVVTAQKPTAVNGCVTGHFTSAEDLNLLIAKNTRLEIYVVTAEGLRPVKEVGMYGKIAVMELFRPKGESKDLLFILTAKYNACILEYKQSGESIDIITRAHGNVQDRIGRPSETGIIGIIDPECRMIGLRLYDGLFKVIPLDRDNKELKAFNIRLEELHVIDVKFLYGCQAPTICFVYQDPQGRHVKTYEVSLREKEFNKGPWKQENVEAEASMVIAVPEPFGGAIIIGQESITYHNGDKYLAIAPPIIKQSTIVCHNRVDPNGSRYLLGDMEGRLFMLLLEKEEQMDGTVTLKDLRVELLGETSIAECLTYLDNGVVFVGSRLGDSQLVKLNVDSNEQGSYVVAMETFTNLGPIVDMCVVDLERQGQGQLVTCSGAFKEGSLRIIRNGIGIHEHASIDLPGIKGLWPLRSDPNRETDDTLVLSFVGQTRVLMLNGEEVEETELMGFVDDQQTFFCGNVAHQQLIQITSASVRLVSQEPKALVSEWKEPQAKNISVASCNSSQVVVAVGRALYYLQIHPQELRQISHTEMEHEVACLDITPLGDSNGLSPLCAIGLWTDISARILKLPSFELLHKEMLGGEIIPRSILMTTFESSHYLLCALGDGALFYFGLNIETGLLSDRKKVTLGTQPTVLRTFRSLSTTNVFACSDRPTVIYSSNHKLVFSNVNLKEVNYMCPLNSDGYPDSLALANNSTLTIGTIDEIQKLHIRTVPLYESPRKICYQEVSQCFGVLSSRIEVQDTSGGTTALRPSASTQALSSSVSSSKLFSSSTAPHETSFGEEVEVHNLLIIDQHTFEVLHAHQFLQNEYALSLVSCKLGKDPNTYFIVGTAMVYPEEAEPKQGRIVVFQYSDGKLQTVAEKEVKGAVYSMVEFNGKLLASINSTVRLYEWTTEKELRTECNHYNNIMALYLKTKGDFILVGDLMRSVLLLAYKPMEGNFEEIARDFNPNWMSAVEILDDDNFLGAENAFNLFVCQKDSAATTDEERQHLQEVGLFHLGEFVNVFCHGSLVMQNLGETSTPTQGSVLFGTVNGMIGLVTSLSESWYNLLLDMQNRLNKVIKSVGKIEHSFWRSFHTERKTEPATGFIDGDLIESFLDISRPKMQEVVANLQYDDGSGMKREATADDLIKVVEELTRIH
One number for each entry, in %.

Examples with answers:
compound="COc1ccc(C(=O)N2CCC3(CCN(Cc4ccc(-c5cc6c(-c7cc(F)cc(NC(=O)N8CC(O)C(CC(C)C)C8)c7C)ncnc6[nH]5)cc4)CC3)CC2)cc1N1CCC(=O)NC1=O (racemic) [Compound 23]" assayed_target="BTK-GFP (Homo sapiens, UniProt Q06187+Q96SW2)" value=3.3
compound="COc1ccc(C(=O)N2CCC(CN3CCN(Cc4ccc(-c5cc6c(-c7cc(F)cc(NC(=O)N8C[C@@H](CC(C)C)[C@H](O)C8)c7C)ncnc6[nH]5)cc4)CC3)CC2)cc1N1CCC(=O)NC1=O [Compound 10]" assayed_target="BTK-GFP (Homo sapiens, UniProt Q06187+Q96SW2)" value=7.4
compound="COc1ccc(C(=O)N2CCC(CCN3CCC(OCc4ccc(-c5cc6c(-c7cc(F)cc(NC(=O)N8C[C@@H](CC(C)C)[C@H](O)C8)c7C)ncnc6[nH]5)cc4)CC3)CC2)cc1N1CCC(=O)NC1=O [Compound 21]" assayed_target="BTK-GFP (Homo sapiens, UniProt Q06187+Q96SW2)" value=4

// each compound listed below needs its BTK deg Amax %
1. COc1ccc(C(=O)N2CCC(OCCN3CCC(Oc4ccc(-c5cc6c(-c7cc(F)cc(NC(=O)N8C[C@H](CC(C)C)[C@@H](O)C8)c7C)ncnc6[nH]5)cc4)CC3)CC2)cc1N1CCC(=O)NC1=O [Compound 20]
2. COc1ccc(C(=O)N2CCC(CN3CCN(Cc4ccc(-c5cc6c(-c7cc(F)cc(NC(=O)N8CC(O)C(CC(C)C)C8)c7C)ncnc6[nH]5)cc4)CC3)CC2)cc1N1CCC(=O)NC1=O (racemic) [Compound 9]

1: 2.4; 2: 6.3
